System: A549/ATCC NSCLC
protocolDetails: NCI-60 one-dose screen, 48 h (100 = growth as untreated, 0 = no growth, -100 = all killed)
experimentalParameters: 10 µM unless noted
The panel holds about 83,000 compounds, 20% with a hit somewhere; the sample as a whole holds those more often.
readoutName: growth (%)
The reply should be a number in %, with the unit left off.

Study these solved cases before continuing.
Query :: growth for `CC#CC#Cc1cccc(=O)o1` ?
Result :: 104

Query :: # repeat for `O=C1C[C@H](N2C(=O)c3ccccc3S2(=O)=O)C2CO[C@@H]1O2`
Result :: 89.1

Query :: # repeat for `c1c2c(cc3c1OCO3)Cc1cc3c(cc1Cc1cc4c(cc1C2)OCO4)OCO3`
Result :: 91.6

Query :: # repeat for `CNCc1cccc2c1OCCOCCOCCN(C)S(=O)(=O)c1ccc(cc1)-c1cnc(N)c(n1)C(=O)N2`
Result :: 60.5

Query :: # repeat for `CC(=O)/C(=C/c1cccc(Cl)c1)C(=O)c1ccccc1`
Result :: 82.6

***
Query :: growth for CCN(CC)CC(C)Nc1ccc([N+](=O)[O-])c2sc3ccccc3c(=O)c12 (stereo not given) ?
Result :: 14.2

Query :: # repeat for `C=C1C(=O)O[C@H]2[C@H]1CC/C(Cn1cc(Cc3c[nH]c4ccccc34)nn1)=C\CC[C@@]1(C)O[C@@H]21`
Result :: 57.9

Query :: # repeat for `Cc1ccc(N)cc1F`
Result :: 99.8

Query :: # repeat for `O=C(C[C@@H](C(=O)NCc1cccc(C(F)(F)F)c1)N1C(=O)[C@@H](N2C(=O)OC[C@@H]2c2ccccc2)[C@H]1/C=C/c1ccccc1)NC1CCN(Cc2ccccc2)CC1`
Result :: 53.5

Query :: # repeat for CCN(CC)CCCC(C)Nc1ccnc2c(OC)cccc12 (stereo not given)
Result :: 106

###

Tested on: HOP-62 NSCLC
protocolDetails: NCI-60 one-dose screen, 48 h (100 = growth as untreated, 0 = no growth, -100 = all killed)
experimentalParameters: 10 µM unless noted
Compounds without any hit were thinned out: in the full panel of roughly 83,000, 20% have a hit.
Given measured growth, output yes (1) if it is greater than or equal to 90% and no (0) if not.

# count of solved cases: 10
Query :: API: above_or_equal(metric=growth, cutoff=90%) for item `CCc1ccccc1NC(=O)c1sc2nc3c(cc2c1N)C(=O)CCC3`
Result :: no (0)

Query :: # repeat for `COc1nc2c(cc1S(=O)(=O)c1ccccc1)CCc1c-2cnn1-c1ccc(Cl)cc1`
Result :: no (0)

Query :: # repeat for `COc1ccc(-c2csc(NC(=O)CN3CCN(c4cc5c(cc4F)c(=O)c(C(=O)O)cn5C4CC4)CC3)n2)cc1`
Result :: no (0)

Query :: # repeat for `c1ccc(-c2nc(N3CCOCC3)c3c4c(sc3n2)CCCCC4)nc1`
Result :: no (0)

Query :: # repeat for `COc1cc(OC)c(/C=C/S(=O)(=O)Cc2ccc(OC)c(N)n2)c(OC)c1`
Result :: no (0)

Query :: # repeat for `O=C(Nc1ccc(F)cc1)Nc1ccc(CCO)cc1`
Result :: yes (1)

Query :: # repeat for `O=C(CN1CCOCC1)Nc1ccc(Cn2nnc3c2C(=O)c2nnn(Cc4ccc(NC(=O)CN5CCOCC5)cc4)c2C3=O)cc1`
Result :: no (0)

Query :: # repeat for `CN1CCN(Cc2ccc(NC(=O)c3[nH]ncc3Nc3ncnc4sccc34)cc2)CC1`
Result :: no (0)

Query :: # repeat for `C/C(=C(/c1ccc(O)cc1)c1ccc(Cl)cc1)c1ccccc1`
Result :: no (0)

Query :: # repeat for O=C1Nc2ccc(Br)cc2C12CC(c1ccccc1)=NN2 (stereo unspecified)
Result :: no (0)

***
Query :: API: above_or_equal(metric=growth, cutoff=90%) for item `CC[n+]1ccc2c(c1)C(=O)c1nccc3c1c-2nc1ccccc13`
Result :: no (0)

Query :: # repeat for Cc1noc(C)c1-c1cc(O)cc(C(O)c2ccccc2)c1 (stereo unspecified)
Result :: no (0)

Query :: # repeat for `O=C1c2cc3c(cc2-c2c1c1cc(F)c(F)cc1c(=O)n2C[C@H](O)CO)OCO3`
Result :: no (0)

Query :: # repeat for `CC#Cc1nc2ccccc2c(=O)[nH]1`
Result :: no (0)

Query :: # repeat for COc1cc(C2C(C(=O)c3cccs3)=C(O)C(=O)N2CCN2CCOCC2)cc(OC)c1OC (stereo unspecified)
Result :: yes (1)

Query :: # repeat for `Nc1nc(SCc2ccccc2)c2ncn(C3CCCC3)c2n1`
Result :: yes (1)

###

Test system: OVCAR-4 ovarian
protocolDetails: NCI-60 one-dose screen, 48 h (100 = growth as untreated, 0 = no growth, -100 = all killed)
experimentalParameters: 10 µM unless noted
The panel holds about 83,000 compounds, 20% with a hit somewhere; the sample as a whole holds those more often. Active and inactive are the calls of the source. How the source made its calls: active means growth percent below 10; inactive means the rest.
Entries and their growth

Query :: growth for CCCCCCCCCCCCN1CCCC(C)C1 (stereo unspecified) ?
Result :: 68% (inactive)

Query :: # repeat for `CCOC(=O)c1ccc2c(c1)nc(/C=C/c1ccc(Cl)cc1)n2-c1cc(C(C)(C)C)[nH]n1`
Result :: 38.3% (inactive)

Query :: # repeat for `CC(C)(C)n1cc(-c2ccnc(NCCNS(=O)(=O)c3ccccc3)c2)c(-c2cccc(O)c2)n1`
Result :: 60.6% (inactive)

***
Query :: growth for `CC#CC#Cc1cccc(=O)o1` ?
Result :: 91.6% (inactive)

Query :: # repeat for `CCOC(=O)c1nc(Nc2cc(C)[nH]n2)c2ccccc2n1`
Result :: 82.5% (inactive)

Query :: # repeat for `COCCCNc1nc(NC(=O)c2ccc(F)cc2C)cc(-c2cccnc2)n1`
Result :: 117% (inactive)

###

Test system: MOLT-4 leukemia
protocolDetails: NCI-60 one-dose screen, 48 h (100 = growth as untreated, 0 = no growth, -100 = all killed)
experimentalParameters: 10 µM unless noted
About 83,000 compounds went through this panel and 20% of them were active in at least one assay; those are over-represented in the sample as a whole.
Given measured growth, output true (1) if it is greater than or equal to 20% and false (0) if not.

Query :: API: above_or_equal(metric=growth, cutoff=20%) for item `COc1ccc(-c2cc(=O)[nH]c3c(OC)c4ccccc4c(OC)c23)cc1`
Result :: false (0)

Query :: # repeat for `O=C1c2cccnc2C(=O)c2c1c(C(=O)OCCN1CCCCC1)c1ccccn21`
Result :: false (0)

Query :: # repeat for `O=C(/C=C\c1cccc([N+](=O)[O-])c1)c1ccccc1`
Result :: false (0)

Query :: # repeat for `c1ccc2c(Nc3cccc4ccccc34)cccc2c1`
Result :: true (1)

Query :: # repeat for `NC(N)=Nc1ccc(S(=O)(=O)O)cc1`
Result :: true (1)

***
Query :: API: above_or_equal(metric=growth, cutoff=20%) for item COCCOC(=O)C1=C(C)NC(=S)NC1c1ccc2c(c1)OCO2 (stereo not given)
Result :: true (1)

Query :: # repeat for `COc1ccc(-n2cc(-c3ccccc3)c3c(SCC(=O)N/N=C/c4ccc([N+](=O)[O-])cc4)ncnc32)cc1`
Result :: true (1)

Query :: # repeat for `CCCCCCCCCCCCCCCCNCCC[C@@H](C)[C@H]1CC[C@H]2[C@@H]3[C@H](OCCCN)C[C@@H]4C[C@H](OCCCN)CC[C@]4(C)[C@H]3C[C@H](OCCCN)[C@]12C`
Result :: false (0)

Query :: # repeat for `S=c1[nH]nc(CSc2ncnc3c2c(-c2ccccc2)cn3-c2ccc(Cl)cc2)o1`
Result :: true (1)

Query :: # repeat for `COc1ccc(-c2nn(-c3ccccc3)cc2/C=C/C(=O)OCc2cn(-c3ccc(F)c(Cl)c3)nn2)cc1`
Result :: true (1)

Query :: # repeat for CC1=NNC(=O)C1C (stereo not given)
Result :: true (1)

Query :: # repeat for `Cc1cc(N/N=C/c2nc(-c3ccc(Cl)cc3)oc2C)c2cc(Cl)ccc2n1`
Result :: false (0)

Query :: # repeat for `COc1ccc(C(=O)c2sc3nc4c(c(C(F)(F)F)c3c2N)CN(C(C)=O)CC4)cc1OC`
Result :: true (1)

Query :: # repeat for `COc1ccc(/C=c2/c(=O)[nH]c3nc4sc(C)c(C)c4c(=O)n23)cc1`
Result :: true (1)

Query :: # repeat for `COc1cc(NCCCCCN=C(N)NC(N)=NC(C)C)c2ncccc2c1`
Result :: true (1)

Query :: # repeat for C=C1CCC2C3(C)COC(c4ccc(OC)cc4Br)OC3CCC2(C)C1/C=C/C1=CCOC1=O (stereo not given)
Result :: true (1)

Query :: # repeat for COc1cc(C2CC(=O)c3c(C)nn(-c4nc5ccccc5[nH]4)c3C2)cc(OC)c1OC (stereo not given)
Result :: true (1)

Query :: # repeat for `COc1cc(/C=N\NC(=O)CN2CCN(c3cc4c(cc3F)c(=O)c(C(=O)N/N=C/c3ccc(O)c(OC)c3)cn4C3CC3)CC2)ccc1O`
Result :: false (0)

Query :: # repeat for `COc1ccc(/C=C/C(=O)c2c(O)c(C)c(O)c3c2OC2=CC(O)=C(C(C)=O)C(=O)[C@]23C)cc1`
Result :: false (0)

Query :: # repeat for CCN(CC)CCCC(C)NCCCNc1cccc2cccnc12 (stereo not given)
Result :: true (1)
